target: thrombin (UniProt P00734;P00734 328-363;364-622); assay: kinetic exclusion assay (KinExA), two-population competitive fit; hypothetical second FA population (16%); the other 84% fixed at Kd 298 pM; PBS with 0.02% sodium azide and 1 mg/mL BSA; incubation 2 h (50 pM, 1 nM FA) or 6.5 h (10 pM FA); thrombin 5 pM to 1 uM; pH and temperature not stated
pKd: −log10 of the molar value.

- binder: "AGTCCGTGGTAGGGCAGGTTGGGGTGACT (structured_DNA) [29-nt thrombin aptamer (Tasset et al.), fluorescent aptamer FA]"
  pKd: 6.30
